target: Human immunodeficiency virus type 1 protease (Human immunodeficiency virus 1, UniProt Q72874); experiment: Inhibition of HIV-1 protease by fluorometric assay
pKi: −log10 of the molar value.
Decision: pKi >= 6 yields Condition met, all other cases yield Condition not met.

Example cases with answers are listed next.
| Smiles input | Discrete label |
| --- | --- |
| O=C(CN1[C@@H](COc2ccccc2)[C@@H](O)[C@H](O)[C@H](COc2ccccc2)N(Cc2cccc(-c3cccs3)c2)S1(=O)=O)Nc1nccs1 | Condition met |
| O=C(CN1[C@@H](COc2ccccc2)[C@@H](O)[C@H](O)[C@H](COc2ccccc2)N(Cc2ccccc2)S1(=O)=O)Nc1nccs1 | Condition met |
| CN1[C@@H](COc2ccccc2)[C@@H](O)[C@H](O)[C@H](COc2ccccc2)N(Cc2ccccc2)S1(=O)=O | Condition met |
| CNC(=O)CN1[C@@H](COc2ccccc2)[C@@H](O)[C@H](O)[C@H](COc2ccccc2)N(CC(=O)NC)S1(=O)=O | Condition not met |
| O=S1(=O)N(Cc2cccc(-c3cccs3)c2)[C@@H](COc2ccccc2)[C@@H](O)[C@H](O)[C@H](COc2ccccc2)N1Cc1cccc(-c2cccs2)c1 | Condition not met |

QUERY: Would you say "O=S1(=O)N(Cc2cccc(CCO)c2)[C@@H](COc2ccccc2)[C@@H](O)[C@H](O)[C@H](COc2ccccc2)N1Cc1cccc(CCO)c1" shows pKi at minimum 6?
RESULT: Condition met

QUERY: Would you say "O=C(CN1[C@@H](COc2ccccc2)[C@@H](O)[C@H](O)[C@H](COc2ccccc2)N(Cc2ccc(-c3cccs3)cc2)S1(=O)=O)Nc1nccs1" shows pKi at minimum 6?
RESULT: Condition not met

###

biological target: UniProtKB Q72874; assay: Inhibition of HIV-1 protease by fluorometric assay
Observable: pKi
Keep it numeric: pKi is minus log10 of the concentration in mol/L.

Consider the following illustrative entries.
| Smiles input | pKi |
| --- | --- |
| O=S1(=O)N(Cc2ccccc2)[C@H](COc2ccccc2)[C@H](O)[C@@H](O)[C@@H](COc2ccccc2)N1Cc1ccccc1 | 7.64 |
| COC(=O)c1ccc(CN2[C@@H](COc3ccccc3)[C@@H](O)[C@H](O)[C@H](COc3ccccc3)N(Cc3ccc(C(=O)OC)cc3)S2(=O)=O)cc1 | 7.08 |

Now for a further molecule.
QUERY: Tell me the measured pKi of "CNC(=O)CN1[C@@H](COc2ccccc2)[C@@H](O)[C@H](O)[C@H](COc2ccccc2)N(Cc2ccccc2)S1(=O)=O" , please.
RESULT: 5.85

###

target: UniProt Q72874; test: Inhibition of HIV-1 protease by fluorometric assay
Observable: pKi
Keep it numeric: pKi is minus log10 of the concentration in mol/L.

| Smiles input | Target | Numeric value |
| --- | --- | --- |
| COC(Cc1cccc(CN2[C@@H](COc3ccccc3)[C@@H](O)[C@H](O)[C@H](COc3ccccc3)N(Cc3cccc(CC(OC)OC)c3)S2(=O)=O)c1)OC | UniProt Q72874 | 6.27 |
| O=C(CN1[C@@H](COc2ccccc2)[C@@H](O)[C@H](O)[C@H](COc2ccccc2)N(Cc2cccc(I)c2)S1(=O)=O)Nc1nccs1 | UniProt Q72874 | 6.29 |
| CNC(=O)c1cccc(CN2[C@@H](COc3ccccc3)[C@@H](O)[C@H](O)[C@H](COc3ccccc3)N(Cc3cccc(C(=O)NC)c3)S2(=O)=O)c1 | UniProt Q72874 | 7.41 |

QUERY: Tell me the measured pKi of "CC(=O)c1cccc(CN2[C@@H](COc3ccccc3)[C@@H](O)[C@H](O)[C@H](COc3ccccc3)N(Cc3cccc(C(C)=O)c3)S2(=O)=O)c1" , please.
RESULT: 7.23

QUERY: Tell me the measured pKi of "CN1[C@@H](COc2ccccc2)[C@@H](O)[C@H](O)[C@H](COc2ccccc2)N(C)S1(=O)=O" , please.
RESULT: 6.15

QUERY: Tell me the measured pKi of "O=S1(=O)N(Cc2ccccc2)[C@@H](COc2ccccc2)[C@@H](O)[C@H](O)[C@H](COc2ccccc2)N1Cc1cccc(-c2cccs2)c1" , please.
RESULT: 7.07
